experiment: Rat IV/PO PK study, Method A
Assay type: in vivo, male Sprague Dawley (SD) rats
run.parameters: male, Sprague Dawley, plasma, PO, 2 mg/kg, *obtained under method 3A
assay.metric: AUC
Number plus unit, in that order.

Sure, the documented AUC for Cc1cc(-n2nc3c(c2-n2ccn(-c4ccc5c(cnn5C)c4F)c2=O)[C@H](C)N(C(=O)c2cc4cc([C@H]5CCOC(C)(C)C5)ccc4n2[C@@]2(c4noc(=O)[nH]4)C[C@@H]2C)CC3)cc(C)c1F [Compound C-5, reference compound] is 4400 ng·h/mL

----------
We begin with a simple list: items and their reported AUC.
experiment: Rat PO PK study, Method B
Type: in vivo, male Sprague Dawley (SD) rats
run.parameters: male, Sprague Dawley, plasma, 30 mg/kg, 10% solutol HS 15
Give the quantity in ng·h/mL, number only.

{"compound": "CN=S(=O)(c1ccc(-n2ccn(-c3c4c(nn3-c3cc(C)c(F)c(C)c3)CCN(C(=O)c3cc5cc([C@H]6CCOC(C)(C)C6)ccc5n3[C@@]3(c5noc(=O)[nH]5)C[C@@H]3C)[C@H]4C)c2=O)c(F)c1C)C1CC1 (single isomer, unassigned)", "uom": "ng·h/mL", "AUC": 51100}
{"compound": "Cc1cc(-n2nc3c(c2-n2ccn(-c4ccc5c(cnn5C)c4F)c2=O)[C@H](C)N(C(=O)c2cc4cc([C@H]5CCOC(C)(C)C5)ccn4c2C2(c4noc(=O)[nH]4)CC2)CC3)cc(C2CC2)c1F [Compound C-6, reference compound]", "uom": "ng·h/mL", "AUC": 58800}
{"compound": "CN=S(=O)(c1ccc(-n2ccn(-c3c4c(nn3-c3cc(C)c(F)c(C)c3)CCN(C(=O)c3cc5cc([C@H]6CCOC(C)(C)C6)ccc5n3[C@@]3(c5noc(=O)[nH]5)C[C@@H]3C)[C@H]4C)c2=O)c(F)c1)C1CC1 (single isomer, unassigned)", "uom": "ng·h/mL", "AUC": 97000}

Sure, the documented AUC for Cc1cc(-n2nc3c(c2-n2ccn(-c4ccc5c(cnn5C)c4F)c2=O)[C@H](C)N(C(=O)c2cc4cc([C@H]5CCOC(C)(C)C5)ccc4n2[C@@]2(c4noc(=O)[nH]4)C[C@@H]2C)CC3)cc(C)c1F [Compound C-5, reference compound] is 13000

----------
assay.system: UniProtKB P43220
Sequence (P43220 24-463, species assumed): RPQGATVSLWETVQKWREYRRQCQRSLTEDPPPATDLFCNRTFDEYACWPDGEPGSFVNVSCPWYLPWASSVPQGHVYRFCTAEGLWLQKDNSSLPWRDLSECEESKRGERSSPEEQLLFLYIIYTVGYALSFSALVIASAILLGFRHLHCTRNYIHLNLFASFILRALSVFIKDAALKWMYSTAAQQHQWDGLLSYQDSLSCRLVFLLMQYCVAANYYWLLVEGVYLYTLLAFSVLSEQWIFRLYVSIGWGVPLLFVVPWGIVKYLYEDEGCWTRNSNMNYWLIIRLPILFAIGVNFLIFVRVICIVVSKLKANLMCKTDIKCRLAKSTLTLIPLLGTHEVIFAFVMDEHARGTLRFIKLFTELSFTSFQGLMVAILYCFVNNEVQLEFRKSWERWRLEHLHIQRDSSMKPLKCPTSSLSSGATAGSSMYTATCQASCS
experiment: GLP-1R agonist cAMP stimulation assay (HEK293/GLP1R/CRE-LUC cells, Cisbio cAMP dynamic 2 kit)
Assay type: cell-based
run.parameters: Table 3, HEK293/GLP1R/CRE-LUC cells, 30 min
Each record is given 1 (yes) if its reported EC50 is strictly below 0.07 nM. Records at or above 0.07 nM are given 0 (no).

Examples with answers:
{"compound": "CCS(=O)(=NC)c1ccc(-n2ccn(-c3c4c(nn3-c3cc(C)c(F)c(C)c3)CCN(C(=O)c3cc5cc(C6CCOCC6)ccc5n3Cc3ccc(C)nc3)[C@H]4C)c2=O)c(F)c1 (single isomer, unassigned) [Compound 171]", "discrete.label": "0 (no)"}
{"compound": "Cc1cc(-n2nc3c(c2-n2ccn(-c4ccc(S5(=O)=NCCC5)cc4)c2=O)[C@H](C)N(C(=O)c2cc4cc(C5CCOCC5)ccc4n2[C@@]2(c4noc(=O)[nH]4)C[C@@H]2C)CC3)cc(C)c1F (single isomer, unassigned) [Compound 143]", "discrete.label": "1 (yes)"}
{"compound": "Cc1cc(-n2nc3c(c2-n2ccn(-c4ccc5c(c4)CS(C)(=O)=N5)c2=O)[C@H](C)N(C(=O)c2cc4cc(C5CCOCC5)ccc4n2[C@@]2(c4noc(=O)[nH]4)C[C@@H]2C)CC3)cc(C)c1F (some centres unmarked) [Compound 225]", "discrete.label": "1 (yes)"}
{"compound": "CCS(=O)(=NC)c1ccc(-n2ccn(-c3c4c(nn3-c3cc(C)c(F)c(C)c3)CCN(C(=O)c3cc5cc(C6CCOCC6)ccc5n3C[C@H]3CCO3)[C@H]4C)c2=O)cc1 (single isomer, unassigned) [Compound 165]", "discrete.label": "0 (no)"}

Please state whether EC50 is below 0.07 nM for CCS(=O)(=NC)c1ccc(-n2ccn(-c3c4c(nn3-c3cc(C)c(F)c(C)c3)CCN(C(=O)c3cc5cc([C@H]6CCOC(C)(C)C6)ccc5n3[C@@]3(c5noc(=O)[nH]5)C[C@@H]3C)[C@H]4C)c2=O)c(F)c1C (single isomer, unassigned) [Compound 216] 1 (yes)

Please state whether EC50 is below 0.07 nM for Cc1cc(-n2nc3c(c2-n2ccn(-c4ccc5c(c4)CCN=S5(C)=O)c2=O)[C@H](C)N(C(=O)c2cc4cc(C5CCOCC5)ccc4n2[C@@]2(c4noc(=O)[nH]4)C[C@@H]2C)CC3)cc(C)c1F (some centres unmarked) [Compound 108] 1 (yes)

Please state whether EC50 is below 0.07 nM for CCS(=N)(=O)c1ccc(-n2ccn(-c3c4c(nn3-c3cc(C)c(F)c(C)c3)CCN(C(=O)c3sc5cc(C6CCOCC6)ccc5c3C3(c5noc(=O)[nH]5)CC3)[C@H]4C)c2=O)cc1 (single isomer, unassigned) [Compound 132] 0 (no)
